assay_explanation: Apparent permeability of the compound assessed as membrane permeation by PAMPA
Format: ADME
observed_property: Papp (×10⁻⁶ cm/s)
Field: numeric (×10⁻⁶ cm/s). Do not append units.

Look up and state reported Papp for Clc1cccc(Nc2nc(SCCN3CCOCC3)nc3c2cnn3CC(Cl)c2ccccc2)c1 (stereo unspecified)
3

---

target_or_test_system: Vascular endothelial growth factor receptor 2 (Homo sapiens, UniProt P35968)
Sequence (P35968 whole entry): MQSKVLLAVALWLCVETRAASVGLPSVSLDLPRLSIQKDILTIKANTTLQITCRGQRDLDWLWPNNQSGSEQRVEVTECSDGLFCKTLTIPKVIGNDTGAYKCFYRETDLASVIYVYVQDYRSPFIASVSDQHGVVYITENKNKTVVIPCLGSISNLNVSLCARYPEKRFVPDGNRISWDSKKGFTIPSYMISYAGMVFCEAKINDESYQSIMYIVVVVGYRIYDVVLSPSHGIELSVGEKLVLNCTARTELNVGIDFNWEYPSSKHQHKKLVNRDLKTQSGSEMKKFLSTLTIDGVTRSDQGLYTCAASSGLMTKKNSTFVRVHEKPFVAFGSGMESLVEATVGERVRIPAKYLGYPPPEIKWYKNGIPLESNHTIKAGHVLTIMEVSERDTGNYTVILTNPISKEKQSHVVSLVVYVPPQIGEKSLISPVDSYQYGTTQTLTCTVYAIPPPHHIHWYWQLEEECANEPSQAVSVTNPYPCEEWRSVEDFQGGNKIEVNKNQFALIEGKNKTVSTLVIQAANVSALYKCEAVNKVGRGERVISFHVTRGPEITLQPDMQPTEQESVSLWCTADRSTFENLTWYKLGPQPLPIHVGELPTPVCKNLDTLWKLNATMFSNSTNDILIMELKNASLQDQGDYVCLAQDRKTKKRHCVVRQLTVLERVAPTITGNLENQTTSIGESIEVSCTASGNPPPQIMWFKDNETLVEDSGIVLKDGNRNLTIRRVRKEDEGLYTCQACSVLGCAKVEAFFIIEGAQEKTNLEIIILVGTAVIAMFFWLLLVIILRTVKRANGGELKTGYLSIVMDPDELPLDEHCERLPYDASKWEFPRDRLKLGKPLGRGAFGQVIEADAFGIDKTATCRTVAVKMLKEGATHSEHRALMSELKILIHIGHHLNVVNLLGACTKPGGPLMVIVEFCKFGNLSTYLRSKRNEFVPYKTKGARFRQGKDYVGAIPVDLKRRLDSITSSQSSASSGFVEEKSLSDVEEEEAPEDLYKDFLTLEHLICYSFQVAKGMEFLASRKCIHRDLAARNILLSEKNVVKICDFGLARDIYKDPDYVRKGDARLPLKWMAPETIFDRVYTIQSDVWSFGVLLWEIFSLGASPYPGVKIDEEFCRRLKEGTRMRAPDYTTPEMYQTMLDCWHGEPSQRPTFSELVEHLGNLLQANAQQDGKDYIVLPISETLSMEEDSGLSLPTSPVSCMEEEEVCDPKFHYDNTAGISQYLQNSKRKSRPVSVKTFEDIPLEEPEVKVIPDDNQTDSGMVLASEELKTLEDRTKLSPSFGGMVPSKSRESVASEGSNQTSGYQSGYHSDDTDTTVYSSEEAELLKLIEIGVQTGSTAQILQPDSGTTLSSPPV
assay_explanation: Inhibition of VEGFR2 expressed in porcine aortic endothelial cells
observed_property: IC50
For clarity, give the value followed by its unit.

Look up and state reported IC50 for ClC(Cn1ncc2c(NCc3ccccc3)ncnc21)c1ccccc1 (stereo unspecified)
1000 nM
